assay: yeast display, Sf9 membrane polyspecificity reagent, FACS + sequencing; frameworks hold sequencing errors

[
  {
    "ENTRY SEQUENCE": "QVQLVETGGGLVQAGGSLRLSCAASGRTFYGNAMGWYRQAPGKEREFVAAIRGSGGSTYYADSVKGRFTISRDNAKNTVYLQMNSLKPEDTAVSYCNRGWAYGSAYYAKYYYWGQGTQVTVSS",
    "polyreactivity (PSR sort gate)": "high polyreactivity"
  },
  {
    "ENTRY SEQUENCE": "QVQLVESGGALVQAGGSLRLSCAASGRIFGVYAMGWYRQAPGKERELVAAITRGASTYYADSVKGRFTISRDNSKNTVYLQMNSLKPEDTAVYYCAVSQYRGIYRKYDYWGHGTQVTVSS",
    "polyreactivity (PSR sort gate)": "high polyreactivity"
  },
  {
    "ENTRY SEQUENCE": "QVQLVESGGGLVQAGGSLSLSCAASGSTIVVNAMGWYRQAPGKERELVASISWTTCSTYYADSVKGRFTISRDNAKNTVYLQMNSLKPEDTAVYYCAADILPRYSQFDYWGQGTQVTVSS",
    "polyreactivity (PSR sort gate)": "low polyreactivity"
  },
  {
    "ENTRY SEQUENCE": "QVQLVESGGGLVQAGGSLRLSCAASGFTFYLYTMGWYRQAPGKERELVATITSDGGTNYADSVKGRFTISRDNAKNTVYLQMNSLKPEDTAVYYCNAASRRGSRKQAKYDFWGQGTQVTVSS",
    "polyreactivity (PSR sort gate)": "low polyreactivity"
  },
  {
    "ENTRY SEQUENCE": "QVQHVESRGGLDPAGGSLRLSCAASGRIFRGNAMGWSSQATGKERELVASITWRGTSTYYADSVKGRFTISRDIAMNTVYLQMNSLKPEDTAVYYCNAVTQTRGYYWGQGTQVTVSS",
    "polyreactivity (PSR sort gate)": "high polyreactivity"
  },
  {
    "ENTRY SEQUENCE": "QVQLVESGGGLVQAGGSLRISCAASGSIFPHYAMGWYRQSPAKERELVAAISYSGGRTYYADSVKGRFTISRDNAKNTFYLQMNSLKPEDTAVYYCAKTERVLYHGDYWGQGTQVTVSS",
    "polyreactivity (PSR sort gate)": "low polyreactivity"
  },
  {
    "ENTRY SEQUENCE": "QVQLVESGGGLVQAGGSLRLSCAASGRIFAVNALGWYRQAPGPERELVATIRGSGTSTYYADSVKGRFTISRDHATNTVYLQMNSLKPEDTAVYYCAKAYNGRYTWRYDYWGQGTQVTVSS",
    "polyreactivity (PSR sort gate)": "high polyreactivity"
  },
  {
    "ENTRY SEQUENCE": "QVQLVESGGGLVQAGGSLRLSCAASGGTFVYYTMGWYRQAPGKERELVAAISGRGGRTYYADSVKGRFTISRDNAKQTVYLQMNSLKPEDPAVYYCTATQIGPYYLPFDSWGQGTQVTVSS",
    "polyreactivity (PSR sort gate)": "high polyreactivity"
  },
  {
    "ENTRY SEQUENCE": "QVQLVESGVGLVQAGGSLRLSCAASGLILANYAMGWYRQAPGKERELVAAISSSGGSTYYADSVKGRFTISRDNAKNTVYLQMNSLKPEDTAVYYCAAYPLYRRRWTGDYWGQGTQVTVSS",
    "polyreactivity (PSR sort gate)": "high polyreactivity"
  },
  {
    "ENTRY SEQUENCE": "QVQLVESGGGLVQAGGSLRLSCAASGSTFYSNAMGWYRQAPGKERELVAGIDTSDGSTNYADSVKGRITISRDNAKNTVYLQMNSLKPEDTAVYYCNTTLRDSRQYVDRAPYTRYDYWGQGTQVTVSS",
    "polyreactivity (PSR sort gate)": "low polyreactivity"
  },
  {
    "ENTRY SEQUENCE": "QVQLVESGGGLVQAGGSLRLSCAASGSIFSCYTMGWYRQAPGKERELVAASTTYADSVKGRFTISRDNAKNTVYLQMNSLKPEDTAVSYCATRHPARRDYWGQGTQVTVSS",
    "polyreactivity (PSR sort gate)": "low polyreactivity"
  }
]
